Origin of measurements: the supplement of paper PMC8371130

System: HL-1
ASSAY_PROCEDURE: relative cell viability (CellTiter-Glo) vs DMSO control (% of DMSO control); higher = more viable cells
STATED_CONDITIONS: oxygen condition: normoxia 72 h; 5000 nM
Counter-ions that a name gives are not always drawn.
The entries below are paired with their reported relative cell viability.

[
  {
    "COMPOUND": "O=C(O)c1nn(Cc2ccc(Cl)cc2Cl)c2ccccc12",
    "OBSERVATION_TYPE": "relative cell viability",
    "ASSAY_VALUE": 112
  }
]

Tested on HL-1: CCCN1C[C@H](CSC)C[C@@H]2c3cccc4[nH]cc(c34)C[C@H]21 [Pergolide mesylate] . Observed relative cell viability: 120

Tested on HL-1: CN(C)C(=O)Oc1ccc[n+](C)c1 [Pyridostigmine Bromide] . Observed relative cell viability: 100

Tested on HL-1: CNCC(=O)c1ccc(O)c(O)c1 [Adrenalone HCl] . Observed relative cell viability: 107

Tested on HL-1: Cc1cccc(C)c1NC1=NCCCS1 [Xylazine HCl] . Observed relative cell viability: 105

Tested on HL-1: `O=c1[nH]c2ccccc2n1CCCN1CCC(n2c(=O)[nH]c3cc(Cl)ccc32)CC1` . Observed relative cell viability: 113

Tested on HL-1: NCCc1c[nH]c2ccc(O)cc12 [Serotonin HCl] . Observed relative cell viability: 113

Tested on HL-1: C[C@]12CC[C@H](O)CC1=CC[C@@H]1[C@@H]2CC[C@]2(C)C(=O)CC[C@@H]12 [Dehydroepiandrosterone] . Observed relative cell viability: 111

Tested on HL-1: CNC(=O)Oc1ccc2c(c1)[C@]1(C)CCN(C)[C@@H]1N2C [Physostigmine Salicylate] . Observed relative cell viability: 48.8

====

Tested on: HL-1
ASSAY_PROCEDURE: relative cell viability (CellTiter-Glo) vs DMSO control (% of DMSO control); higher = more viable cells
STATED_CONDITIONS: oxygen condition: normoxia 72 h; 1000 nM
Counter-ions that a name gives are not always drawn.
The entries below are paired with their reported relative cell viability.
Number, no unit, nothing else.

Please review the following examples before continuing.
[
  {
    "MOLECULE": "CC(C)N(CCNC(=O)CN1CCCC1=O)C(C)C [Pramiracetam]",
    "relative cell viability": 107
  },
  {
    "MOLECULE": "COc1ccc(C(=O)N2CCCC2=O)cc1 [Aniracetam]",
    "relative cell viability": 111
  }
]

According to the records, this molecule CNC(=O)Oc1ccc2c(c1)[C@]1(C)CCN(C)[C@@H]1N2C [Physostigmine Salicylate] displays relative cell viability of 64.7

According to the records, this molecule CN1[C@@H]2CC(O)C[C@H]1[C@@H]1O[C@@H]12 (stereo partly specified) [Scopine] displays relative cell viability of 96.5

According to the records, this molecule C[C@]12CC[C@H]3[C@@H](CC[C@@]45O[C@@H]4C(O)=C(C#N)C[C@]35C)[C@@H]1CC[C@@H]2O [Trilostane] displays relative cell viability of 102

According to the records, this molecule CC[C@@]1(O)C(=O)OCc2c1cc1n(c2=O)Cc2cc3ccccc3nc2-1 [Camptothecin] displays relative cell viability of 89.7

According to the records, this molecule CC(O)(CS(=O)(=O)c1ccc(F)cc1)C(=O)Nc1ccc(C#N)c(C(F)(F)F)c1 (stereo unspecified) [Bicalutamide] displays relative cell viability of 110

According to the records, this molecule C/C=C(\C)C(=O)N[C@@H](c1ccccc1)[C@@H](O)C(=O)O[C@H]1C[C@@]2(O)[C@@H](OC(=O)c3ccccc3)[C@@H]3[C@]4(OC(C)=O)CO[C@@H]4C[C@H](O)[C@@]3(C)C(=O)[C@H](OC(C)=O)C(=C1C)C2(C)C [Cephalomannine] displays relative cell viability of 20.2

According to the records, this molecule CC[C@@H](C(N)=O)N1CCCC1=O [Levetiracetam] displays relative cell viability of 116

According to the records, this molecule C=C1C[C@@H]2[C@H](CC[C@]3(C)C(=O)CC[C@@H]23)[C@@]2(C)C=CC(=O)C=C12 [Exemestane] displays relative cell viability of 124

According to the records, this molecule C=CCN1CC[C@]23c4c5ccc(O)c4O[C@H]2C(=O)CC[C@@]3(O)[C@H]1C5 [Naloxone HCl] displays relative cell viability of 109
